Notes on pIC50 obtained with butyrylcholinesterase (BuChE) (Homo sapiens).
Sequence (P06276 29-602): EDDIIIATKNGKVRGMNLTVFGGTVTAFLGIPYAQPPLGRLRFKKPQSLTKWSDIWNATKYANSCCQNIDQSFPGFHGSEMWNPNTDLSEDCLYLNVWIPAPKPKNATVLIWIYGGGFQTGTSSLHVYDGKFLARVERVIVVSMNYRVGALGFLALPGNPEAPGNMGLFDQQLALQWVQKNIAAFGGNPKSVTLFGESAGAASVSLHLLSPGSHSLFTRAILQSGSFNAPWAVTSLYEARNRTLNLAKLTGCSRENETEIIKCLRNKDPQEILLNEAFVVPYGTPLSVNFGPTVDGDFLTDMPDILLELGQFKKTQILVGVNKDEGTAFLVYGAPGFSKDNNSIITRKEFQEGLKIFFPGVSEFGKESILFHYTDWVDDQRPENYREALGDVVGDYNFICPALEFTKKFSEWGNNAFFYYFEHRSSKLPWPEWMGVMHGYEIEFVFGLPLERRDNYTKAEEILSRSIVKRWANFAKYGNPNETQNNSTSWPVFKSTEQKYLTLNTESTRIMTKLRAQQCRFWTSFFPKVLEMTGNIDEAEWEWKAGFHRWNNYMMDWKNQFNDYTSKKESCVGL
One number for each entry, as −log10 of the molar value.

In the examples that follow, each entry is paired with its recorded pIC50.
INSERT INTO results (query_smiles, tested_on, attribute_measured, value_reported) VALUES
  ('Cc1ccc(/C(CSc2nc3ccccc3[nH]2)=N\Nc2nc(-c3ccc(C)cc3)co2)cc1', 'butyrylcholinesterase (BuChE) (Homo sapiens)', 'pIC50', 5.08),
  ('Cc1ccc(/C(CSc2nc3ccccc3[nH]2)=N\Nc2nc(-c3ccccc3[N+](=O)[O-])co2)cc1', 'butyrylcholinesterase (BuChE) (Homo sapiens)', 'pIC50', 5.72),
  ('Cc1ccc(/C(CSc2nc3ccccc3[nH]2)=N\Nc2nc(-c3ccccc3)co2)cc1', 'butyrylcholinesterase (BuChE) (Homo sapiens)', 'pIC50', 5.01);

What does the data say about its pIC50? Entry: Cc1ccc(-c2coc(N/N=C(/CSc3nc4ccccc4[nH]3)c3ccc(-c4ccccc4)cc3)n2)cc1
5.03

###

# TESTED_ON: butyrylcholinesterase (BuChE) (Homo sapiens)
# ASSAY_TEXT: biochemical
# CONDITION_SUMMARY: in vitro; donepezil as standard; read-out: BuChE IC50 ± SEM
pIC50: −log10 of the molar value.
Hi, to clarify the labels: Yes covers pIC50 from 6 upward, No covers anything below 6.

Can COc1ccc(/C(CSc2nc3ccccc3[nH]2)=N\Nc2nc(-c3ccccc3[N+](=O)[O-])co2)cc1 be said to have pIC50 at or above 6?
No

Answer whether pIC50 of O=[N+]([O-])c1cccc(-c2coc(N/N=C(/CSc3nc4ccccc4[nH]3)c3ccccc3)n2)c1 is greater than or equal to 6.
No

// inclusive: pIC50 at least 6? input: O=[N+]([O-])c1ccccc1-c1coc(N/N=C(/CSc2nc3ccccc3[nH]2)c2ccccc2)n1
No

Is it the case that COc1cccc(-c2coc(N/N=C(/CSc3nc4ccccc4[nH]3)c3ccccc3)n2)c1 has pIC50 reaching or exceeding 6?
No

Is reported pIC50 greater than or equal to 6 here: Cc1ccc(/C(CSc2nc3ccccc3[nH]2)=N\Nc2nc(-c3ccc(Cl)cc3Cl)co2)cc1
Yes

Determine whether this molecule has pIC50 no lower than 6: Cc1ccc(/C(CSc2nc3ccccc3[nH]2)=N\Nc2nc(-c3cccc([N+](=O)[O-])c3)co2)cc1
No

###

Quick record: pIC50, acetylcholinesterase (AChE) (Homo sapiens, UniProt P22303).
Numbers only, as −log10 of the molar value.

A selection of reference data follows.
INSERT INTO measurements (molecule, value_reported) VALUES
  ('COc1cccc(-c2coc(N/N=C(/CSc3nc4ccccc4[nH]3)c3ccc(Cl)cc3)n2)c1 [Compound 19]', 5.57),
  ('O=[N+]([O-])c1cccc(-c2coc(N/N=C(/CSc3nc4ccccc4[nH]3)c3ccc(Cl)cc3)n2)c1 [Compound 11]', 6.15),
  ('CN(C)c1ccc(/C(CSc2nc3ccccc3[nH]2)=N\Nc2nc(-c3ccc(Br)cc3)co2)cc1 [Compound 7]', 4.90);

I need pIC50 for every entry listed below, if you could help.
1. Cc1ccc(-c2coc(N/N=C(/CSc3nc4ccccc4[nH]3)c3ccc(-c4ccccc4)cc3)n2)cc1 [Compound 16]
2. Cc1ccc(/C(CSc2nc3ccccc3[nH]2)=N\Nc2nc(-c3ccccc3[N+](=O)[O-])co2)cc1 [Compound 2]
3. O=[N+]([O-])c1ccccc1-c1coc(N/N=C(/CSc2nc3ccccc3[nH]2)c2ccc(Cl)cc2)n1 [Compound 18]
4. Cc1ccc(/C(CSc2nc3ccccc3[nH]2)=N\Nc2nc(-c3ccc(Cl)cc3Cl)co2)cc1 [Compound 14]
5. Cc1ccc(/C(CSc2nc3ccccc3[nH]2)=N\Nc2nc(-c3cccc([N+](=O)[O-])c3)co2)cc1 [Compound 3]
6. Cc1ccc(/C(CSc2nc3ccccc3[nH]2)=N\Nc2nc(-c3ccccc3)co2)cc1 [Compound 13]
7. COc1cccc(-c2coc(N/N=C(/CSc3nc4ccccc4[nH]3)c3ccc(C)cc3)n2)c1 [Compound 5]

5.21
5.80
6.10
6.70
5.36
5.09
5.01

Below is a list of molecules. For each, state its recorded pIC50.
1. Cc1ccc(/C(CSc2nc3ccccc3[nH]2)=N\Nc2nc(-c3ccc(C)cc3)co2)cc1 [Compound 4]
2. COc1ccccc1-c1coc(N/N=C(/CSc2nc3ccccc3[nH]2)c2ccc(C)cc2)n1 [Compound 8]
3. COc1ccc(/C(CSc2nc3ccccc3[nH]2)=N\Nc2nc(-c3ccccc3[N+](=O)[O-])co2)cc1 [Compound 1]
4. O=[N+]([O-])c1ccccc1-c1coc(N/N=C(/CSc2nc3ccccc3[nH]2)c2ccccc2)n1 [Compound 17]
5. O=[N+]([O-])c1cccc(-c2coc(N/N=C(/CSc3nc4ccccc4[nH]3)c3ccccc3)n2)c1 [Compound 10]
6. Cc1ccc(/C(CSc2nc3ccccc3[nH]2)=N\Nc2nc(-c3ccc(Cl)c(Cl)c3)co2)cc1 [Compound 6]
7. COc1cccc(-c2coc(N/N=C(/CSc3nc4ccccc4[nH]3)c3ccccc3)n2)c1 [Compound 15]

1: 5.19; 2: 5.28; 3: 5.96; 4: 5.60; 5: 5.85; 6: 6.40; 7: 5.27
